Values were extracted from paper PMC5540273.

The entries below come with measured %Inh values attached.
System: DCAMKL2;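 further: KINOMEscan kinase panel screen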
Construct: gene DCLK2
Conditions: concentration: 1 μM, replicates: in singlicate; n = 1
Your reply should be a number followed by the unit it is expressed in.

Past entries and their recorded results:
# compound, %Inh
rows = [
    ("COc1cc2c(Nc3cccc(NC(=O)c4ccccc4)c3)ncnc2cc1OCCCN1CCOCC1", "14%"),
    ("CSc1nn2c(=O)cc(N3CCOCC3)nc2n1Cc1cccc(Cl)c1Cl", "0%"),
    ("CCC(CC)(CC)n1cnc2c(N)ncnc21", "0%"),
    ("COc1ccc(Nc2nccc(N3CCC(NC(=O)Nc4ccc5c(c4)OCO5)C3)n2)cc1 (centres unmarked)", "14%"),
]

Consider now this further compound.
Query :: Look at this compound and give its reported %Inh. "COc1ccc(NC(=O)Nc2ccc(C)c(-c3ccc(C(=O)Nc4ccncc4)cc3)c2)cc1"
Result :: 0%
